Reference for the values: PubChem BioAssay AID2060484

I'd appreciate it if you could supply viability, T/C values for the items below.
Tested on: SUM149PT spheroids with HUVEC/MSC, viability
Experiment: Anticancer human tumor SUM149PT cell line growth inhibition [GQUAD]
Settings: second compound 0.1 µM; first compound 1 µM; stronger effect = lower value
Write the value in % as a bare number.

The observed viability, T/C for O=C(c1cc(Cc2n[nH]c(=O)c3ccccc23)ccc1F)N1CCN(C(=O)C2CC2)CC1 + Cc1[nH]c2ccc(F)cc2c1-c1nc2c3cccnc3c3ncccc3c2[nH]1 when tested with SUM149PT spheroids with HUVEC/MSC, viability stands at 99.8

Test item CC1COCCN1c1cc(-c2ccnn2C)c2ccnc(-c3ccn[nH]3)c2n1 (stereo not given) + CN(C)c1ccc(Nc2c3ccc(NC(=O)CCN4CCCC4)cc3nc3cc(NC(=O)CCN4CCCC4)ccc23)cc1 ; SUM149PT spheroids with HUVEC/MSC, viability; reported viability, T/C was 29.4

Assay SUM149PT spheroids with HUVEC/MSC, viability, sample CC(C)n1c(=O)n(C)c2cnc3cc(F)c(-c4ccc(OCCCN5CCCCC5)nc4)cc3c21 + Cc1cnc(CNC(=O)c2c(=O)c3ccc(N4CCCN(C)CC4)nc3n3c2sc2ccccc23)cn1 , viability, T/C read: 60.2

Note to self: viability, T/C of CC(C)(O)C1CCC(Nc2ccc3ncc(-c4cccc(C(F)(F)F)c4)n3n2)CC1 (stereo not given) + Cc1[nH]c2ccc(F)cc2c1-c1nc2c3cccnc3c3ncccc3c2[nH]1 with SUM149PT spheroids with HUVEC/MSC, viability was 67.4

Known value: SUM149PT spheroids with HUVEC/MSC, viability viability, T/C of the compound COc1cc(C2c3cc4c(cc3C(OC3OC5COC(C)OC5C(O)C3O)C3COC(=O)C23)OCO4)cc(OC)c1O (stereo not given) + CN(C)c1ccc(Nc2c3ccc(NC(=O)CCN4CCCC4)cc3nc3cc(NC(=O)CCN4CCCC4)ccc23)cc1 equals 55

viability, T/C for SUM149PT spheroids with HUVEC/MSC, viability with input COc1cc(C2c3cc4c(cc3C(OC3OC5COC(C)OC5C(O)C3O)C3COC(=O)C23)OCO4)cc(OC)c1O (stereo not given) + Cc1[nH]c2ccc(F)cc2c1-c1nc2c3cccnc3c3ncccc3c2[nH]1 equals 47.1

SUM149PT spheroids with HUVEC/MSC, viability assay, compound Cc1cccc(N(C)C(=O)C2C(O)CCN2c2nc(C)cc(C(F)(F)F)c2C#N)c1 (stereo not given) + Cc1cnc(CNC(=O)c2c(=O)c3ccc(N4CCCN(C)CC4)nc3n3c2sc2ccccc23)cn1 , recorded viability, T/C = 64.9

Lab note: compound O=c1[nH]cc(F)c(=O)[nH]1 + Cc1[nH]c2ccc(F)cc2c1-c1nc2c3cccnc3c3ncccc3c2[nH]1 tested on SUM149PT spheroids with HUVEC/MSC, viability; recorded viability, T/C was 111

Known value: SUM149PT spheroids with HUVEC/MSC, viability viability, T/C of the compound CC(=O)O[C@H]1C(=O)[C@@]2(C)[C@H]([C@H](OC(=O)c3ccccc3)[C@]3(O)C[C@H](OC(=O)[C@H](O)[C@@H](NC(=O)c4ccccc4)c4ccccc4)C(C)=C1C3(C)C)[C@]1(OC(C)=O)CO[C@@H]1C[C@@H]2O + Cc1cnc(CNC(=O)c2c(=O)c3ccc(N4CCCN(C)CC4)nc3n3c2sc2ccccc23)cn1 equals 13.1

Simply: CC(=O)O[C@H]1C(=O)[C@@]2(C)[C@H]([C@H](OC(=O)c3ccccc3)[C@]3(O)C[C@H](OC(=O)[C@H](O)[C@@H](NC(=O)c4ccccc4)c4ccccc4)C(C)=C1C3(C)C)[C@]1(OC(C)=O)CO[C@@H]1C[C@@H]2O + Cc1[nH]c2ccc(F)cc2c1-c1nc2c3cccnc3c3ncccc3c2[nH]1 , SUM149PT spheroids with HUVEC/MSC, viability, viability, T/C = 19.7

###

Provide the reported viability, T/C of each item.
Test system: SUM149PT spheroids with HUVEC/MSC, viability
Test: Anticancer human tumor SUM149PT cell line growth inhibition [GQUAD];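 further: spheroids exposed to drugs for seven days before readout; percent viability relative to DMSO vehicle control taken as 100%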
Settings: second compound 0.1 µM; first compound 1 µM; stronger effect = lower value
Answer with a number only, understood to be in %.

Note to self: viability, T/C of CC(=O)O[C@H]1C(=O)[C@@]2(C)[C@H]([C@H](OC(=O)c3ccccc3)[C@]3(O)C[C@H](OC(=O)[C@H](O)[C@@H](NC(=O)c4ccccc4)c4ccccc4)C(C)=C1C3(C)C)[C@]1(OC(C)=O)CO[C@@H]1C[C@@H]2O + CN(C)c1ccc(Nc2c3ccc(NC(=O)CCN4CCCC4)cc3nc3cc(NC(=O)CCN4CCCC4)ccc23)cc1 with SUM149PT spheroids with HUVEC/MSC, viability was 17.8

viability, T/C on SUM149PT spheroids with HUVEC/MSC, viability for COc1cccc2c1C(=O)c1c(O)c3c(c(O)c1C2=O)CC(O)(C(=O)CO)CC3OC1CC(N)C(O)C(C)O1 (centres undefined) + Cc1cnc(CNC(=O)c2c(=O)c3ccc(N4CCCN(C)CC4)nc3n3c2sc2ccccc23)cn1 is 15.2

SUM149PT spheroids with HUVEC/MSC, viability data for C#Cc1c(F)ccc2cc(O)cc(-c3ncc4c(N5CC6CCC(C5)N6)nc(OCC56CCCN5CC(F)C6)nc4c3F)c12 (centres undefined) + Cc1cnc(CNC(=O)c2c(=O)c3ccc(N4CCCN(C)CC4)nc3n3c2sc2ccccc23)cn1 ; its viability, T/C: 38.9

The compound O=C(c1cc(Cc2n[nH]c(=O)c3ccccc23)ccc1F)N1CCN(C(=O)C2CC2)CC1 + Cc1cnc(CNC(=O)c2c(=O)c3ccc(N4CCCN(C)CC4)nc3n3c2sc2ccccc23)cn1 on SUM149PT spheroids with HUVEC/MSC, viability: viability, T/C was 66.4

###

Test system: SUM149PT spheroids with HUVEC/MSC, viability
Assay: Anticancer human tumor SUM149PT cell line growth inhibition [GQUAD]; active = viability on the fitted dose curve at most 10% of control; inactive = the rest;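 further: spheroids exposed to drugs for seven days before readout; percent viability relative to DMSO vehicle control taken as 100%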
Details: second compound 0.0316 µM; first compound 10 µM
Source text: DNA G-quadruplex Stabilizer Agents in Combinations in Complex Spheroids A high-throughput screen of multi-cell type tumor spheroids was designed to identify active combinations of DNA G-quadruplex stabilizer agents and targeted small molecules. […] Compounds. […] If the clinical Cmax for an agent had not been determined, the highest concentration tested was 10 microM. […]
Form entry, call: pick from active, inactive

Status in this test for CC(C)n1c(=O)n(C)c2cnc3cc(F)c(-c4ccc(OCCCN5CCCCC5)nc4)cc3c21 + CN(C)c1ccc(Nc2c3ccc(NC(=O)CCN4CCCC4)cc3nc3cc(NC(=O)CCN4CCCC4)ccc23)cc1 ?
inactive

# outcome recorded in this test, key = C=CCn1c(=O)c2cnc(Nc3ccc(N4CCN(C)CC4)cc3)nc2n1-c1cccc(C(C)(C)O)n1 + Cc1[nH]c2ccc(F)cc2c1-c1nc2c3cccnc3c3ncccc3c2[nH]1
active

What call does the record list for COc1ncnc(C2CC2)c1-c1ncc2cnn(Cc3ccc(-c4nc(C(F)(F)F)cn4C(C)C)cc3)c2n1 + CN(C)c1ccc(Nc2c3ccc(NC(=O)CCN4CCCC4)cc3nc3cc(NC(=O)CCN4CCCC4)ccc23)cc1 ?
inactive

###

Consider the following molecules; for each one, report its viability, T/C.
Tested on: SUM149PT spheroids with HUVEC/MSC, viability
Experiment: Anticancer human tumor SUM149PT cell line growth inhibition [GQUAD];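 further: spheroids exposed to drugs for seven days before readout; percent viability relative to DMSO vehicle control taken as 100%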
Conditions: second compound 0.316 µM; first compound 0.0999 µM; stronger effect = lower value
Express the result in % but write the number alone.

The recorded viability, T/C for entry CCc1c2c(nc3ccc(O)cc13)-c1cc3c(c(=O)n1C2)COC(=O)[C@]3(O)CC + Cc1[nH]c2ccc(F)cc2c1-c1nc2c3cccnc3c3ncccc3c2[nH]1 equals 27.2

The molecule listed as Cc1[nH]c2ccccc2c1CCNCc1ccc(/C=C/C(=O)NO)cc1 + Cc1[nH]c2ccc(F)cc2c1-c1nc2c3cccnc3c3ncccc3c2[nH]1 shows viability, T/C equal to 87.6

viability, T/C recorded for this molecule, CC[C@@]1(O)C(=O)OCc2c1cc1n(c2=O)Cc2cc3c(CN(C)C)c(O)ccc3nc2-1 + Cc1[nH]c2ccc(F)cc2c1-c1nc2c3cccnc3c3ncccc3c2[nH]1 , is 40.2

response.value for CC[C@@]1(O)C(=O)OCc2c1cc1n(c2=O)Cc2cc3c(CN(C)C)c(O)ccc3nc2-1 + Cc1cnc(CNC(=O)c2c(=O)c3ccc(N4CCCN(C)CC4)nc3n3c2sc2ccccc23)cn1 (field: viability, T/C) = 42

###

Give measured viability, T/C for each item. Keep answers brief.
Tested on: SUM149PT spheroids with HUVEC/MSC, viability
Experiment: Anticancer human tumor SUM149PT cell line growth inhibition [GQUAD];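 further: spheroids exposed to drugs for seven days before readout; percent viability relative to DMSO vehicle control taken as 100%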
Conditions: second compound 1 µM; first compound 1 µM; stronger effect = lower value
Excerpt: DNA G-quadruplex Stabilizer Agents in Combinations in Complex Spheroids A high-throughput screen of multi-cell type tumor spheroids was designed to identify active combinations of DNA G-quadruplex stabilizer agents and targeted small molecules. […] Compounds. […] If the clinical Cmax for an agent had not been determined, the highest concentration tested was 10 microM. […]
Dear colleague, please return just the value in %, with no unit written.

Entry CC1COCCN1c1cc(-c2ccnn2C)c2ccnc(-c3ccn[nH]3)c2n1 (stereo not given) + CN(C)c1ccc(Nc2c3ccc(NC(=O)CCN4CCCC4)cc3nc3cc(NC(=O)CCN4CCCC4)ccc23)cc1 , viability, T/C reported as 23.7

Short answer for O=C(c1cc(Cc2n[nH]c(=O)c3ccccc23)ccc1F)N1CCN(C(=O)C2CC2)CC1 + Cc1cnc(CNC(=O)c2c(=O)c3ccc(N4CCCN(C)CC4)nc3n3c2sc2ccccc23)cn1 : viability, T/C was 48.4

Entry under test: CC(C)(O)C1CCC(Nc2ccc3ncc(-c4cccc(C(F)(F)F)c4)n3n2)CC1 (stereo not given) + Cc1[nH]c2ccc(F)cc2c1-c1nc2c3cccnc3c3ncccc3c2[nH]1 . Its viability, T/C was 68

Per the record, C=CC(=O)N1CCN(c2nc(=O)n(-c3c(C)ccnc3C(C)C)c3nc(-c4c(O)cccc4F)c(F)cc23)C(C)C1 (stereo not given) + CN(C)c1ccc(Nc2c3ccc(NC(=O)CCN4CCCC4)cc3nc3cc(NC(=O)CCN4CCCC4)ccc23)cc1 has viability, T/C of 103

Please fill in: viability, T/C reported for COc1ccc([C@@H](O)c2cc(-c3ncnc4cc(N5CCOCC5)ccc34)c(F)cc2Cl)nn1 + Cc1cnc(CNC(=O)c2c(=O)c3ccc(N4CCCN(C)CC4)nc3n3c2sc2ccccc23)cn1 = 23.2
